FYI, the data here is from ChEMBL document CHEMBL1127751.

Test system: Cholecystokinin receptor type B (Cavia porcellus)
Test: Percent inhibition of specific [125I]Bolton-Hunter CCK-8 binding in guinea pig cortex at 10e-6 M
Starred links: 1 amine or outer side, 2 acyl side, 3 side chain; linkers in the order of their positions; H or OH if unused. Non-standard residues stand in square brackets, D forms with d. Residues, ends and D or L forms follow the SMILES beside them. Groups on a side chain read outwards from the residue. ξ: configuration not given here. *: point of attachment. ξW = NC(Cc1c[nH]c2ccccc12)C(=O)O; NH(2-Me-phenyl) = Cc1ccccc1N*; ξNMeF = CNC(Cc1ccccc1)C(=O)O; β3hP = O=C(O)C[C@@H]1CCCN1; ξF = NC(Cc1ccccc1)C(=O)O; Boc = CC(C)(C)OC(=O)*; CO = O=C([*:1])[*:2]; Sar = CNCC(=O)O
MEASURE NAME: inhibition (%)
Express it in %; write the number only.

Sample records with inhibition:
COMPOUND	UNIT ABBREVIATION	inhibition
Cc1ccccc1NC(=O)NCCCC[C@H](NC(=O)C(Cc1c[nH]c2ccccc12)NC(=O)OC(C)(C)C)C(=O)NCCCCC(=O)N(C)C(Cc1ccccc1)C(N)=O (stereo partly specified)	%	7
Cc1ccccc1NC(=O)NCCCC[C@H](NC(=O)C(Cc1c[nH]c2ccccc12)NC(=O)OC(C)(C)C)C(=O)N1CCC[C@H]1CC(=O)N(C)C(Cc1ccccc1)C(N)=O (stereo partly drawn) (Boc-[ξW]K([CO-NH(2-Me-phenyl)])[β3hP][ξNMeF]-NH2)	%	13
Cc1ccccc1NC(=O)NCCCC[C@H](NC(=O)C(Cc1c[nH]c2ccccc12)NC(=O)OC(C)(C)C)C(=O)N(C)CCCC(=O)NC(Cc1ccccc1)C(N)=O (stereo partly specified)	%	11
Cc1ccccc1NC(=O)NCCCC[C@H](NC(=O)C(Cc1c[nH]c2ccccc12)NC(=O)OC(C)(C)C)C(=O)NCC(=O)N(C)C(Cc1ccccc1)C(N)=O (stereo partly specified) (Boc-[ξW]K([CO-NH(2-Me-phenyl)])G[ξNMeF]-NH2)	%	0
Cc1ccccc1NC(=O)NCCCC[C@H](NC(=O)C(Cc1c[nH]c2ccccc12)NC(=O)OC(C)(C)C)C(=O)NCCCC(=O)N(C)C(Cc1ccccc1)C(N)=O (stereo partly specified)	%	11
Cc1ccccc1NC(=O)NCCCC[C@H](NC(=O)C(Cc1c[nH]c2ccccc12)NC(=O)OC(C)(C)C)C(=O)N1CCC(=O)N(C(Cc2ccccc2)C(N)=O)CC1 (stereo partly specified)	%	8
Cc1ccccc1NC(=O)NCCCC[C@H](NC(=O)C(Cc1c[nH]c2ccccc12)NC(=O)OC(C)(C)C)C(=O)NCCCC(=O)NC(Cc1ccccc1)C(N)=O (stereo partly specified)	%	11
Cc1ccccc1NC(=O)NCCCC[C@H](NC(=O)C(Cc1c[nH]c2ccccc12)NC(=O)OC(C)(C)C)C(=O)NCC(=O)NC(Cc1ccccc1)C(N)=O (stereo partly specified) (Boc-[ξW]K([CO-NH(2-Me-phenyl)])G[ξF]-NH2)	%	14
Cc1ccccc1NC(=O)NCCCC[C@H](NC(=O)C(Cc1c[nH]c2ccccc12)NC(=O)OC(C)(C)C)C(=O)NCCCCCC(=O)NC(Cc1ccccc1)C(N)=O (stereo partly specified)	%	6
Cc1ccccc1NC(=O)NCCCC[C@H](NC(=O)C(Cc1c[nH]c2ccccc12)NC(=O)OC(C)(C)C)C(=O)N(C)CC(=O)NC(Cc1ccccc1)C(N)=O (stereo partly specified) (Boc-[ξW]K([CO-NH(2-Me-phenyl)])[Sar][ξF]-NH2)	%	5

Then there is this compound:
Would you kindly share the measured inhibition for Cc1ccccc1NC(=O)NCCCC[C@H](NC(=O)C(Cc1c[nH]c2ccccc12)NC(=O)OC(C)(C)C)C(=O)N[C@@H]1CC(=O)N([C@@H](Cc2ccccc2)C(N)=O)C1 (stereo partly specified) ?
39
